meta.source: patent US20250215104A1

# System Tested: T1, human soluble urokinase plasminogen activator receptor (suPAR) (human, UniProt Q03405 23-303, limits assumed)
# T1 construct: Target antigen of the off-rate screen; also called hsuPAR; human suPAR
# T1 sequence (Q03405 23-303 limits assumed): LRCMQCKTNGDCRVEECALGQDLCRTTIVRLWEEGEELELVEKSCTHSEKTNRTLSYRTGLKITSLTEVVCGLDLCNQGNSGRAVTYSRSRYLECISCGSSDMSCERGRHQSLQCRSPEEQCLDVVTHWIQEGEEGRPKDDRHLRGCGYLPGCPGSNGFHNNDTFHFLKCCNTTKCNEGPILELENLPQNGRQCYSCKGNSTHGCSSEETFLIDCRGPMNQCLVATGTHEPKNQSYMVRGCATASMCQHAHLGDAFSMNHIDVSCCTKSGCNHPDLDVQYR
# Test Details: off-rate (kdis) screen of scFv clones, biosensor (Octet)
Readout Name: koff (s⁻¹)

* suPAR_DB01_C02 (scFv, V domains shown, screened as scFv) VH: QVQLVQSGAEVKKPGASVKVSCKASGYTFNTYYMHWVRQAPGQGLEWMGWIDPENGNTIYDQKFQGRVTMTRDTSTSTVYMELSSLRSEDTAVYYCARGYDVDWFVYWGQGTLVTVSS VL: DIQMTQSPSSLSASVGDRVTITCSASSSVSYMYWYQQKPGKAPKLLIYRTSSLQSGVPSRFSGSGSGTDFTLTISSLQPEDFATYYCQQYHSYPPTFGGGTKVEIK | 0.00353
* suPAR_DB01_B02 (scFv, V domains shown, screened as scFv) VH: QVQLVQSGAEVKKPGASVKVSCKASGYTFTNYYMHWVRQAPGQGLEWMGWIDHENGNTIYDQKFQGRVTMTRDTSTSTVYMELSSLRSEDTAVYYCARGYDVDWFVYWGQGTLVTVSS VL: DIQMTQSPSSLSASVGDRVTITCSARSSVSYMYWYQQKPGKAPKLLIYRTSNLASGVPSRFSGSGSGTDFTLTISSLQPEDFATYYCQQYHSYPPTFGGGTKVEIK | 0.00142
* suPAR_DB01_C01 (scFv, V domains shown, screened as scFv) VH: QVQLVQSGAEVKKPGASVKVSCKASGYTFTGYYMHWVRQAPGQGLEWMGWIDHENGNTIYDQKFQGRVTMTRDTSTSTVYMELSSLRSEDTAVYYCARGYDVDWFVYWGQGTLVTVSS VL: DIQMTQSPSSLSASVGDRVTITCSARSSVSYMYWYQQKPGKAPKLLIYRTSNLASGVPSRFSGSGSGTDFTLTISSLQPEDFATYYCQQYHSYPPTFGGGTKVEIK | 0.00122
* suPAR_DB01_D08 (scFv, V domains shown, screened as scFv) VH: QVQLVQSGAEVKKPGASVKVSCKASGYTFTSYYMHWVRQAPGQGLEWMGWIDHENGSTIYAQKFQGRVTMTRDTSTSTVYMELSSLRSEDTAVYYCARGYDVDWFVYWGQGTLVTVSS VL: DIQMTQSPSSLSASVGDRVTITCRASSSVSYMYWYQQKPGKAPKLLIYRTSNLASGVPSRFSGSGSGTDFTLTISSLQPEDFATYYCQQYHSYPPTFGGGTKVEIK | 0.000666
* suPAR_DB01_B01 (scFv, V domains shown, screened as scFv) VH: QVQLVQSGAEVKKPGASVKVSCKASGYTFTDYYMHWVRQAPGQGLEWMGWIDHENGNTIYDQKFQGRVTMTRDTSTSTVYMELSSLRSEDTAVYYCARGYDVDWFVYWGQGTLVTVSS VL: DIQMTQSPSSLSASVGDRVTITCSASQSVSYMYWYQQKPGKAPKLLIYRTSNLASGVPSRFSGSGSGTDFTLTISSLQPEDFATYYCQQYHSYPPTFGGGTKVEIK | 0.0028
